FYI, the data here is from PubChem BioAssay AID1159580.

test: chemical genetic growth profiling, strain panel (AID 1159580);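 also: tested at 20 µM; growth read once vehicle control cultures reached saturation at 30 °C; lower values mean less growth of the strain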; details: S. cerevisiae deletion strains, growth OD, locus YHR013C, strain ard1
Hit rate of the full screen: of about 5,500 compounds, about 2,000 (36%) were called active. Roughly 18% stayed inconclusive and do not appear here. Rule as the data show it: active = normalized growth mostly below about 0.91 (no sharp cut-off); inconclusive = no clear call, values can overlap the other calls; inactive = mostly above about 0.92. Some of the results follow.
Outcome (select one): YES = active, NO = inactive

Illustrative cases are given below, each with its answer.
COMPOUND	ASSIGNED CLASS
CC(=O)NC1SCCC1=O (configuration not stated)	NO
CCOC(=O)C(C)(C)Oc1ccc(Cl)cc1	NO
O=C(O)c1cc2ccccc2[nH]1	NO
C=C1C2CC[C@H]3[C@]4(C)C[C@H](OC5OC(CO)C(OS(=O)(=O)O)C(OS(=O)(=O)O)C5OC(=O)CC(C)C)C[C@@H](C(=O)O)[C@H]4CC[C@]3(C2)[C@H]1O (some centres not stated)	NO
CCN(CC)CCNC(=O)c1cc(Br)c(N)cc1OC	NO

Let us examine a further case.
Hi, do you know how `CC1(C)OC(=O)NC1=O` came out in this test?
NO
